The reported numbers originate from the Deep4Chem optical property database.

Assay: solvent given as SMILES
Conditions: in CCCCCC
endpoint label: absorption maximum (nm)
Kindly answer with a numeric value in nm, unit omitted.

1. c1ccc2cc(-c3cc(-c4nccs4)nc(-c4nccs4)c3)ccc2c1; 333
2. c1ccc(-c2cc(-c3ccc4ccc5cccc6ccc3c4c56)ccn2)nc1; 342
3. CC(C)[Si](C#Cc1c2nsnc2c(C#C[Si](C(C)C)(C(C)C)C(C)C)c2nc3c(nc12)Cc1ccccc1-3)(C(C)C)C(C)C; 540
4. CC(C)[Si](C#Cc1c2cc3ccccc3cc2c(C#C[Si](C(C)C)(C(C)C)C(C)C)c2nc3ccccc3nc12)(C(C)C)C(C)C; 693
5. CCCCCCCCCCCCC1(CCCCCCCCCCCC)c2cc(-c3ccc(C=C4C(=O)c5ccccc5C4=O)cc3)ccc2-c2ccc(-c3ccc(C=C4C(=O)c5ccccc5C4=O)cc3)cc21; 419
6. CN(C)c1ccc(C#Cc2ccc3ccc4ccc(C#Cc5ccc(N(C)C)cc5)c5ccc2c3c45)cc1; 421
7. Cc1ccc(-n2cccc2)cc1; 254
8. C(=C\c1ccc(N(c2ccccc2)c2ccccc2)cc1)/c1ccccc1; 362

// sample `CC(C)[Si](C#Cc1c2nc3c(nc2c(C#C[Si](C(C)C)(C(C)C)C(C)C)c2nc4c(nc12)C1c2ccccc2C4c2ccccc21)C1c2ccccc2C3c2ccccc21)(C(C)C)C(C)C` , its absorption maximum was 450

// sample `Nc1ccc2c(C(F)(F)F)cc(=O)oc2c1` , its absorption maximum was 347

// sample `O=[N+]([O-])c1ccc(-c2nc3c(c4c2-c2ccccc2CC4)-c2ccccc2CC3)cc1` , its absorption maximum was 339

// sample `CN(C)CCNc1ccc([N+](=O)[O-])cc1[N+](=O)[O-]` , its absorption maximum was 330

// sample `OC1(c2ccc(-c3cccs3)s2)CCCC1` , its absorption maximum was 341

====

Assay: solvent given as SMILES
Details: in C1COCCO1
Mark each entry true (1) if its absorption maximum sits below 400 nm, and false (0) for all others.

Example entries begin here.
1. COc1ccc(/C=C/C2=CC(/C=C/c3ccc(OC)cc3)=[N+]3C2=C(c2ccc(-c4ccc5ccccc5n4)s2)c2c(/C=C/c4ccc(OC)cc4)cc(/C=C/c4ccc(OC)cc4)n2[B-]3(F)F)cc1; false (0)
2. O=C1OC(c2ccccc2)=N/C1=C\c1ccccc1; true (1)
3. COC(=O)C(Cc1ccc2oc(-c3ccc(-n4c5ccccc5c5ccccc54)cc3)nc2c1)NC(=O)OC(C)(C)C (stereo unspecified); true (1)
4. Nc1ccc(-c2ccc(N)cc2)cc1; true (1)
5. Oc1ccccc1/N=C/c1ccccc1Oc1ccccc1; true (1)

-- ask Please check: absorption maximum for `COC(=O)c1nc2c(N(C)C)nc(N)nc2n1Cc1ccccc1` , strictly under 400 nm or not?
-- reply true (1)

-- ask Please check: absorption maximum for `CCOC(=O)/C(C#N)=C\c1cn(-c2ccccc2)nc1-c1ccccc1` , strictly under 400 nm or not?
-- reply true (1)

-- ask Please check: absorption maximum for `CN(C)c1ccc(/C=C/c2cc[n+](Cc3cc(C[n+]4ccc(/C=C/c5ccc(N(C)C)cc5)cc4)cc(C[n+]4ccc(/C=C/c5ccc(N(C)C)cc5)cc4)c3)cc2)cc1` , strictly under 400 nm or not?
-- reply false (0)

-- ask Please check: absorption maximum for Cc1ccc(C2CC(c3ccc(O)cc3)=NN2c2ccc(S(N)(=O)=O)cc2)cc1 (stereo unspecified) , strictly under 400 nm or not?
-- reply true (1)

-- ask Please check: absorption maximum for `O=C1/C(=C\c2ccc3oc4ccccc4c3c2)S(=O)(=O)c2ccccc21` , strictly under 400 nm or not?
-- reply true (1)

-- ask Please check: absorption maximum for `CCN(CC)c1ccc2cc(/C=C/C(=O)/C=C(O)/C=C/c3cc4ccc(N(CC)CC)cc4oc3=O)c(=O)oc2c1` , strictly under 400 nm or not?
-- reply false (0)

====

Test: solvent given as SMILES
Conditions: in ClC(Cl)Cl
endpoint label: absorption maximum (nm)
Kindly answer with a numeric value in nm, unit omitted.

Observe how each entry below is paired with its result.
1. CCCC1=CC2=C(c3c(C)cc(C)cc3C)c3cc(CCC)c(-c4ccc5ccc6cccc7ccc4c5c67)n3[B-](F)(F)[N+]2=C1c1ccc2ccc3cccc4ccc1c2c34; 562
2. COc1cc2c(cc1C=C(C#N)C#N)c1ccccc1n2C; 430
3. Cc1ccc(C2=C3C=CC(/C=C/c4ccccc4)=[N+]3[B-](F)(F)n3c(/C=C/c4ccccc4)ccc32)cc1; 635
4. Cc1cc2c(o1)=CC1=C(C(F)(F)F)c3cc4oc(C)cc4n3[B-](F)(F)[N+]=21; 613
5. CN(C)c1ccc(/C=C/c2cc(/C=C/c3ccc(N(C)C)cc3)nc(N)n2)cc1; 426

// sample `CCN(CC)c1ccc2cc(-c3cn4cc(C)ccc4n3)c(=O)oc2c1` , its absorption maximum was 424

// sample `N#CC(C#N)=C(c1ccc(N(c2ccccc2)c2ccccc2)cc1)c1ccc(N(c2ccccc2)c2ccccc2)cc1` , its absorption maximum was 381.49

// sample `Nc1ccc(-c2ccc(N)cc2)cc1` , its absorption maximum was 305

// sample `C#CCn1c2ccccc2c2cc(/C=C/c3c(Cl)c(C)c4n3[B-](F)(F)[N+]3=C(C)C(Cl)=C(C)C3=C4c3ccc(I)cc3)ccc21` , its absorption maximum was 619

// sample `COc1ccc(C#Cc2ccc(C#N)cc2)cc1OC` , its absorption maximum was 329

====

Test: solvent given as SMILES
Settings: in CCCCCC
Mark each entry satisfied if its absorption maximum sits below 400 nm, and not satisfied for all others.

Example entries begin here.
1) CN(C)c1ccc(/C=C/c2nc3ccccc3s2)cc1; satisfied
2) F[B-]1(F)n2c(ccc2-c2cccs2)C(C(F)(F)F)=C2C=CC(c3cccs3)=[N+]21; not satisfied
3) CNc1cccc2c1C(=O)c1ccccc1C2=O; not satisfied
4) CCCCCCCCCCCCOc1cc(/C=C/c2ccc3c(c2)C(CC)(CC)c2cc(N4c5ccccc5Sc5ccccc54)ccc2-3)c(OCCCCCCCCCCCC)cc1/C=C/c1ccc2c(c1)C(CC)(CC)c1cc(N3c4ccccc4Sc4ccccc43)ccc1-2; not satisfied
5) CC1=[N+]2C(=C(c3ccc(-c4c5ccccc5c(-c5ccccc5)c5ccccc45)cc3)c3ccc(C)n3[B-]2(F)F)C=C1; not satisfied

-- ask Please check: absorption maximum for `COc1cccc(-n2c(-c3ccc(F)cc3)nc(C)c2C)c1` , strictly under 400 nm or not?
-- reply satisfied

-- ask Please check: absorption maximum for `Oc1ccccc1/N=C/c1ccccc1Oc1ccccc1` , strictly under 400 nm or not?
-- reply satisfied

-- ask Please check: absorption maximum for `N#Cc1ccc(-c2ccc(C3=CCCCC3)s2)s1` , strictly under 400 nm or not?
-- reply satisfied

====

Test: solvent given as SMILES
Settings: in CCOC(C)=O
endpoint label: absorption maximum (nm)
Kindly answer with a numeric value in nm, unit omitted.

Observe how each entry below is paired with its result.
1) COc1ccc(-c2nc(N)nc(C#N)c2C#N)cc1OC; 356
2) Cc1ccc(N(c2ccc(C)cc2)c2ccc(-c3ccc4c(c3)C(=O)c3ccccc3C4=O)cc2)cc1; 461
3) F[B-]1(F)n2c(ccc2N2CCOCC2)C(c2ccccc2)=C2C=CC(N3CCOCC3)=[N+]21; 570

// sample `N#CSC1=CC2=C(c3ccccc3)c3ccc(SC#N)n3[B-](F)(F)[N+]2=C1N1CCOCC1` , its absorption maximum was 554

// sample `Nc1ccc(-c2ccc(N)cc2)cc1` , its absorption maximum was 285

// sample `COc1cccc2cc(-c3cc4cccc(OC)c4oc3=O)oc12` , its absorption maximum was 351

// sample `O=C1Nc2ccccc2/C1=C/C(=O)c1ccc(O)cc1` , its absorption maximum was 334

// sample `N#C/C(=C\c1cc(/C=C(\C#N)c2ccc(C(F)(F)F)cc2)c(-c2ccc(N(c3ccccc3)c3ccccc3)cc2)cc1-c1ccc(N(c2ccccc2)c2ccccc2)cc1)c1ccc(C(F)(F)F)cc1` , its absorption maximum was 397

====

Test: solvent given as SMILES
Settings: in C1CCCCC1
endpoint label: absorption maximum (nm)
Kindly answer with a numeric value in nm, unit omitted.

Observe how each entry below is paired with its result.
1. CN(C)c1ccc(/C=C/c2nc3ccccc3s2)cc1; 384
2. c1ccc(-c2nc(-c3ccccc3)n3ccccc23)cc1; 302
3. CCCCC1(CCCC)c2cc(C#Cc3ccc4ccc5cccc6ccc3c4c56)ccc2-c2ccc(C#Cc3ccc4ccc5cccc6ccc3c4c56)cc21; 418

// sample CCCCC1=Cc2c3ccc4cccc5ccc(c6cc(-c7ccccc7)n(c26)P1(=O)c1ccccc1)c3c45 (stereo not given) , its absorption maximum was 430

// sample `Cc1cc(C)c(B(c2c(C)cc(C)cc2C)c2cc3ccc4ccccc4c3c3c2cc(N(C)C)c2ccccc23)c(C)c1` , its absorption maximum was 438

====

Assay: solvent given as SMILES
Conditions: in CCCCCCC
Decision: absorption maximum compared against 400 nm; not below it gives TRUE, below it gives FALSE.

1. COc1ccc(C#Cc2ccc(C#N)cc2)cc1OC; FALSE

-- ask Confirm if absorption maximum reported for the molecule `c1ccc2cc3c(cc2c1)-c1cccc2cc4ccccc4c-3c12` is 400 nm or above.
-- reply TRUE

-- ask Confirm if absorption maximum reported for the molecule `CN(C)c1ccc(/C=C/C=C/c2ccncc2)cc1` is 400 nm or above.
-- reply FALSE

-- ask Confirm if absorption maximum reported for the molecule `CN(C)c1ccc(/C=C/c2nc3ccccc3s2)cc1` is 400 nm or above.
-- reply FALSE
